- method: viability gain of MRP-1-high H69AR cells under doxorubicin, pilot screen, MRP-1 activator project, CellTiter-Glo, duplicate (AID 807);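 also: compound pretreatment 18-22 h then 72 h combined with doxorubicin; 0% = doxorubicin alone and 100% = vehicle without doxorubicin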
- setup-conditions: H69AR viability with doxorubicin, CellTiter-Glo luminescence; at 10 µM; stronger effect = higher value
quantity-kind: viability increase (%)

[[record]]
compound = "CCCOc1ccc(N2CC(C(=O)Nc3ccccc3OC)CC2=O)cc1 (stereo unspecified)"
quantity_kind = "viability increase"
result_value = 0.54

[[record]]
compound = "Cc1cccn2c(=O)c3cc(C#N)c(=NC(=O)c4ccccc4)n(Cc4ccco4)c3nc12"
quantity_kind = "viability increase"
result_value = -1.26

[[record]]
compound = "CC(C)Oc1cc(O)c2c(=O)c(-c3ccc(O)cc3)coc2c1"
quantity_kind = "viability increase"
result_value = -6.33

[[record]]
compound = "Cc1ccc(NC(=O)c2ccco2)cc1C"
quantity_kind = "viability increase"
result_value = -3.07

[[record]]
compound = "CCN1CCN(c2cc(C)c3cc(NC(=O)Cc4ccc(OC)c(OC)c4)ccc3n2)CC1"
quantity_kind = "viability increase"
result_value = -5.64

[[record]]
compound = "O=C(CSCc1ccc(Cl)cc1)c1ccco1"
quantity_kind = "viability increase"
result_value = 0.59

